Data provenance is patent US7662896B2.

Run description: Contact angle measurement on glass cover slips (Test Procedure II)
Format: physicochemical
Condition label: 0.01 weight % surfactant solution in HPLC water
Assay metric: Receding CA on Clean Glass (°)
Answer format: numeric, ° implied, no suffix.

Q) Read off the recorded Receding CA on Clean Glass for CCN(CC(=O)[O-])S(=O)(=O)C(F)(F)C(F)(F)C(F)(F)C(F)(F)C(F)(F)C(F)(F)C(F)(F)C(F)(F)F.[K+] [FC-129, C8F17SO2N(C2H5)CH2CO2^−K^+]
A) 7

---

Run description: Contact angle measurement on glass cover slips (Test Procedure II)
Type: physicochemical
Condition label: 0.01 weight % surfactant solution in HPLC water
Assay metric: Advancing CA on Clean Glass (°)
Answer format: numeric, ° implied, no suffix.

Q) Read off the recorded Advancing CA on Clean Glass for CCN(CC(=O)[O-])S(=O)(=O)C(F)(F)C(F)(F)C(F)(F)C(F)(F)C(F)(F)C(F)(F)C(F)(F)C(F)(F)F.[K+] [FC-129, C8F17SO2N(C2H5)CH2CO2^−K^+]
A) 61.6

---

Run description: Contact angle measurement on glass cover slips (Test Procedure II)
Type: physicochemical
Condition label: 0.01 weight % solution; glass with a film of dried surfactant solution
Assay metric: Advancing CA on Dried Surfactant (°)
Answer format: numeric, ° implied, no suffix.

Q) Read off the recorded Advancing CA on Dried Surfactant for "CCN(CC(=O)[O-])S(=O)(=O)C(F)(F)C(F)(F)C(F)(F)C(F)(F)C(F)(F)C(F)(F)C(F)(F)C(F)(F)F.[K+]"
A) 64.6

---

Run description: Contact angle measurement on glass cover slips (Test Procedure II)
Format: physicochemical
Condition label: 0.01 weight % solution; glass with a film of dried surfactant solution
Assay metric: Receding CA on Dried Surfactant (°)
Answer format: numeric, ° implied, no suffix.

Q) Read off the recorded Receding CA on Dried Surfactant for CCN(CC(=O)[O-])S(=O)(=O)C(F)(F)C(F)(F)C(F)(F)C(F)(F)C(F)(F)C(F)(F)C(F)(F)C(F)(F)F.[K+] [FC-129, C8F17SO2N(C2H5)CH2CO2^−K^+]
A) 12.2
